experiment: NCI Yeast Anticancer Drug Screen. Data for the mlh1 rad18 strain (AID 175); details: S. cerevisiae mlh1 rad18 strain growth inhibition; at 50.0 µM; stronger effect = higher value
Compounds without any hit were thinned out: in the full panel of roughly 79,000, 15% have a hit.
Quick rule for you: growth inhibition at 20% or higher means Condition met, lower means Condition not met.

The examples below pair each entry with its known result.
{"columns": ["COMPOUND", "QUALITATIVE_LABEL"],
 "data": [
  ["Cc1cnc(Br)c(Br)c1", "Condition not met"],
  ["O=C1C(c2ccccc2)C(c2ccccc2)C(c2ccccc2)C1c1ccccc1 (configuration not stated)", "Condition not met"],
  ["O=[N+]([O-])c1ccc2nc[nH]c2c1", "Condition met"]
]}

Challenge: # bool: growth inhibition of `Oc1ccc(Cl)c2cccnc12` >= 20%
Response given: Condition met

Challenge: Cool, now `COc1cc(NCc2c(O)ccc3ccccc23)c2ncccc2c1`
Response given: Condition met

Challenge: Cool, now `COc1ccc(/C=C\c2cc(OC)c(OC)c(OC)c2)cc1OC`
Response given: Condition not met

Challenge: Cool, now CCCCC(ON=C(C)C)C(=O)OC (configuration not stated)
Response given: Condition met

Challenge: Cool, now COc1cccc(NC(=O)C(=O)C(C(C)=O)c2nc3ccc(Cl)cc3[nH]c2=O)c1 (configuration not stated)
Response given: Condition not met

----------
test: NCI Yeast Anticancer Drug Screen. Data for the mlh1 rad18 strain (AID 175); settings: S. cerevisiae mlh1 rad18 strain growth inhibition; at 50.0 µM; stronger effect = higher value
About 79,000 compounds went through this panel and 15% of them were active in at least one assay; those are over-represented in the sample as a whole.
Hi there, I'd appreciate the recorded growth inhibition for every entry that follows.
Numbers only, in %.

// each molecule listed below needs its growth inhibition
1. COC1C2CC3C4(CCC5C6(C)CCCC53C(C14)N(C)C6)CC21CCC23C4C=C5C6=C(CCC5(CC42)C3O1)C1(C)CC(C6)CN(C)C1 (stereo not drawn)
2. CCCCn1cnc2c(SC(C)C)nc(N)nc21

Response given:
26.6
-16.2

----------
experiment: NCI Yeast Anticancer Drug Screen. Data for the cln2 rad14 strain (AID 165);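 further: 0% = growth equal to vehicle treated cultures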; conditions: S. cerevisiae cln2 rad14 strain, at 50.0 µM
The panel holds about 79,000 compounds, 15% with a hit somewhere; the sample as a whole holds those more often. The source made the active and inactive calls. Rule as the data show it: active = growth inhibition above about 70%; inactive = the rest.
Give one outcome, nothing more. List: active, inactive

{"columns": ["COMPOUND", "QUALITATIVE_LABEL"],
 "data": [
  ["CC(=O)c1ccc(NC(=O)/C(=N\\NC(N)=O)C(C#N)CC(C)(C)C=O)cc1 (stereo not given)", "inactive"],
  ["c1ccc(C(=C2CCC2)c2c3ccccc3cc3ccccc23)cc1", "inactive"],
  ["O=[N+]([O-])c1cccc2nc3ccccc3c(NCCc3ccccn3)c12", "inactive"],
  ["O=C(CSc1nc2[nH]ncc2c(=O)[nH]1)c1ccc(Cl)cc1", "inactive"],
  ["COC(=O)C(C)n1c(C)csc1=S (stereo not given)", "inactive"]
]}

Challenge: Just curious, what result did `COc1ccc2c(c1)OC[C@@H]1c3cc(NC(=O)c4ccccc4)c(OC)cc3N(S(=O)(=O)c3ccccc3)[C@H]21` get here?
Response given: inactive

Challenge: Cool, now CC(C(=O)O)N(CCC#N)CCC#N (stereo not given)
Response given: inactive

Challenge: Cool, now `O=C1C(Br)=C(Br)C(=O)C2=C1C1c3ccccc3C2c2ccccc21`
Response given: active

Challenge: Cool, now COc1ccc(CC(N)C(=O)OC(C)C)cc1 (stereo not given)
Response given: inactive

Challenge: Cool, now O=C(c1nc2ccccc2[nH]c1=O)C(O)c1ccccc1 (stereo not given)
Response given: inactive

Challenge: Cool, now `CCN(CC)CCCNc1ccc([N+](=O)[O-])c2nc3ccccc3c(N)c12`
Response given: inactive

----------
Hi there, I'd appreciate the recorded growth inhibition for every entry that follows.
experiment: NCI Yeast Anticancer Drug Screen. Data for the rad50 strain (AID 155);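 further: 0% = growth of vehicle-only cultures of the same strain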; conditions: S. cerevisiae rad50 strain growth inhibition; at 50.0 µM; stronger effect = higher value
About 79,000 compounds went through this panel and 15% of them were active in at least one assay; those are over-represented in the sample as a whole.
Numbers only, in %.

{"columns": ["COMPOUND", "RECORDED_NUMBER"],
 "data": [
  ["O=C(O)C1CC2C3CC(C(=O)O)C(C3)C2C1 (centres undefined)", -15.8]
]}

// each compound listed below needs its growth inhibition
1. CCCCCCCCCCCCCCC(=O)OCCN(C)C
2. COc1ccc(/C=C/c2cnc3ccccc3n2)cc1OC
3. COc1ccc(/C=C/C(=O)c2c(-c3ccccc3)nn(C)c(=O)c2N2CCCCC2)cc1
4. C=CCNC(=O)C[n+]1cccc(C(=O)NC)c1

Response given:
1: -3.6; 2: 28.8; 3: 7.8; 4: 22.6

----------
Hi there, I'd appreciate the recorded growth inhibition for every entry that follows.
test: NCI Yeast Anticancer Drug Screen. Data for the cln2 rad14 strain (AID 165);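 further: 0% = growth equal to vehicle treated cultures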; conditions: S. cerevisiae cln2 rad14 strain, at 50.0 µM, stronger effect = higher value
The panel holds about 79,000 compounds, 15% with a hit somewhere; the sample as a whole holds those more often.
Numbers only, in %.

Some solved cases for reference:
{"columns": ["COMPOUND", "MEASURED_ATTRIBUTE", "UNIT_LABEL", "RECORDED_NUMBER"],
 "data": [
  ["Cc1ccc(O)c(C(C)C)c1", "growth inhibition", "%", -16.1],
  ["CCOC(=O)NCC(C)(C)N(C(=O)OCC)c1ccccc1", "growth inhibition", "%", -9.95],
  ["CCOC(=O)C(NC(C)=O)C(O)c1ccccc1 (stereo unspecified)", "growth inhibition", "%", -24.6],
  ["Cc1[nH]n(-c2ccccc2)c(=S)c1C(=O)c1ccccc1", "growth inhibition", "%", 1.7],
  ["COC(=O)C(=O)c1c(-c2cccnc2)[nH]c2ccccc12", "growth inhibition", "%", -9.05]
]}

// each compound listed below needs its growth inhibition
1. CN(C(=O)C12C3C4C1C1C2C3C41C#N)C(C)(C)C (stereo unspecified)
2. CCCCNCC(=O)Nc1ccc(C(=O)OC(C)C)cc1
3. COc1ccccc1NC(=O)OCc1ccco1
4. COC1=C(C(C2=C(OC)CC(C)(C)CC2=O)c2ccc3c(c2)OCO3)C(=O)CC(C)(C)C1
5. CCCCCCC1NC(CCCCCC)N2C(CCCCCC)N12 (stereo unspecified)
6. CNC1C(O)C(OC2C(N)CC(N)C(OC3OC(CN)C(O)C(O)C3O)C2O)OCC1(C)O (stereo unspecified)
7. CC(C)C(=O)/C=C/c1ccc(Br)cc1

Response given:
1. 11.2
2. -35.3
3. -65.2
4. 0.3
5. 0
6. 4.85
7. 2.6

----------
test: NCI Yeast Anticancer Drug Screen. Data for the sgs1 mgt1 strain (AID 161);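 further: 0% = growth of cultures given vehicle only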; conditions: S. cerevisiae sgs1 mgt1 strain, at 50.0 µM, stronger effect = higher value
This is part of a sample that, as a whole, favours compounds with a hit. Of some 79,000 tested, about 15% had one in any assay.
MEASURED_ATTRIBUTE: growth inhibition (%)
One number for each entry, in %.

Some solved cases for reference:
{"columns": ["MOLECULE", "UNIT_LABEL", "growth inhibition"],
 "data": [
  ["NC(=S)N/N=C1\\CCCC1C(O)(C(F)(F)Cl)C(F)(F)Cl (configuration not stated)", "%", 56.1],
  ["COc1ccc(N=Nc2c(-c3ccccc3)nn(C(=O)CC(=O)Nc3ccc(OC)cc3)c2-c2ccccc2)cc1", "%", -0.8],
  ["N#CCC(=O)N1CCCCC1", "%", 9.9],
  ["COc1cc2c(c(OC)c1OC)C(=O)[C@H]1OC(=O)N[C@@H]21", "%", 5.2],
  ["CC(O)CC(C)(C)O (configuration not stated)", "%", 8.55]
]}

// each molecule listed below needs its growth inhibition
1. NC(N)=NCCS(=O)(=O)O
2. CC(=O)OC[C@H]1O[C@@H](O[C@H]2[C@H](OC(C)=O)C=CO[C@@H]2COC(C)=O)C(OC(C)=O)[C@H]2OC(C)(C)O[C@H]21 (some centres not stated)
3. O=C(O)c1ccc(F)cc1F

Response given:
1: -2; 2: -18.9; 3: 11.3

----------
test: NCI Yeast Anticancer Drug Screen. Data for the mlh1 rad18 strain (AID 175); conditions: S. cerevisiae mlh1 rad18 strain growth inhibition; at 50.0 µM; stronger effect = higher value
This is part of a sample that, as a whole, favours compounds with a hit. Of some 79,000 tested, about 15% had one in any assay.
Hi there, I'd appreciate the recorded growth inhibition for every entry that follows.
Answers are plain numbers, in %.

Some solved cases for reference:
{"columns": ["COMPOUND", "UNIT_LABEL", "growth inhibition"],
 "data": [
  ["COc1cc(CCC(=O)NS(=O)(=O)c2ccccc2)cc(OC)c1OC", "%", 10.2],
  ["O=C(O)CCc1nc2ccccc2[nH]1", "%", -1],
  ["CCS(=O)(=O)OCCOC", "%", 10.2],
  ["Nc1nc2c(c(-c3nc(N)nc4c3CCC4)n1)CCC2", "%", 10.8],
  ["O=C(CCSC(=S)Nc1ccc(Cl)cc1)NNc1ccccc1", "%", 18.2]
]}

// each compound listed below needs its growth inhibition
1. Oc1ccc2cccc(O)c2c1
2. O=C(NC(=S)Nc1ccsc1)c1ccccc1
3. Nc1ccc2nc3c4ccccc4c(O)n3nc2c1
4. Fc1cccc(Cl)c1/C=N\N=C1c2ccccc2-c2ccccc21
5. O=C1c2ccc(O)cc2OC(c2ccc(O)c(O)c2)C1O (configuration not stated)

Response given:
1. 3.9
2. -6.35
3. 14.6
4. -15.8
5. 6.4
